# measurement_description: total protein half-life in vivo (active degradation + dilution); higher = more stable protein
# condition_context: wild type E. coli NCM3722; growth: N-lim chemostat; doubling time 6 h
I'd be grateful if you could share measured total protein half-life in vivo for these entries.
Give bare numbers, in h.

* MNEFSILCRVLGSLYYRQPQDPLLVPLFTLIREGKLAANWPLEQDELLTRLQKSCDMTQVSADYNALFIGDECAVPPYRSAWVEGATEAEVRAFLSERGMPLADTPADHIGTLLLAASWLEDQSTEDESEALETLFSEYLLPWCGAFLGKVEAHATTPFWRTMAPLTRDAISAMWDELEEDSEE | 4.99

Then there is this sequence:
## Task Which total protein half-life in vivo is listed for MYPVDLHMHTVASTHAYSTLSDYIAQAKQKGIKLFAITDHGPDMEDAPHHWHFINMRIWPRVVDGVGILRGIEANIKNVDGEIDCSGKMFDSLDLIIAGFHEPVFAPHDKATNTQAMIATIASGNVHIISHPGNPKYEIDVKAVAEAAAKHQVALEINNSSFLHSRKGSEDNCREVAAAVRDAGGWVALGSDSHTAFTMGEFEECLKILDAVDFPPERILNVSPRRLLNFLESRGMAPIAEFADL ?
## Result 4.04
